MEASUREMENT TARGET: Fbw7 (UniProt Q969H0 263-707, limits assumed)
Sequence (Q969H0 263-707 limits assumed): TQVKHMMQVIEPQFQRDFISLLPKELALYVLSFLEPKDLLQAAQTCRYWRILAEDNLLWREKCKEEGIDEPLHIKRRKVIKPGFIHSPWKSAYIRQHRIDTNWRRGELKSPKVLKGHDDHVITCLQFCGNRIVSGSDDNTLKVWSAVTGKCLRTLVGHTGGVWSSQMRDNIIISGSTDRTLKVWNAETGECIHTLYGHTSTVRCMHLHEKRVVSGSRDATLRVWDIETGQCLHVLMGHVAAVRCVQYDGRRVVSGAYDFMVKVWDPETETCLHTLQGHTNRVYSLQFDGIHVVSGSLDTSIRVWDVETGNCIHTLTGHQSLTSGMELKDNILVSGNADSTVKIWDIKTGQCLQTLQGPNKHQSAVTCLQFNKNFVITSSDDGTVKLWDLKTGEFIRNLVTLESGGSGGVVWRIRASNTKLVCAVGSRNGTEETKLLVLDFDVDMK
EXPERIMENT DESCRIPTION: cell-based or functional assay
Starred links: 1 amine or outer side, 2 acyl side, 3 side chain; linkers in the order of their positions; H or OH if unused. Non-standard residues stand in square brackets, D forms with d. *: point of attachment. Tyr(Me) = O-methyl-L-tyrosine, COc1ccc(C[C@H](N[*:1])C(=O)[*:2])cc1; Phe(4-NO2) = N[C@@H](Cc1ccc([N+](=O)[O-])cc1)C(=O)O; E(Me) = COC(=O)CC[C@H](N[*:1])C(=O)[*:2]; Phe(3-Cl) = N[C@@H](Cc1cccc(Cl)c1)C(=O)O; Phe(3-F) = N[C@@H](Cc1cccc(F)c1)C(=O)O; 1Nal = N[C@@H](Cc1cccc2ccccc12)C(=O)O; Phe(2-F) = N[C@@H](Cc1ccccc1F)C(=O)O; Suc = O=C(CCC(=O)[*:2])[*:1]; Tos = Cc1ccc(S(=O)(=O)*)cc1
READOUT TYPE: % Inhibition Fbw7 @ 10 µM (%)
Only the number, expressed in %, is required.

# lookup: % Inhibition Fbw7 @ 10 µM of Suc-EG[Phe(2-F)][Phe(4-NO2)]E-NH2 (SMILES NC(=O)[C@H](CCC(=O)O)NC(=O)[C@H](Cc1ccc([N+](=O)[O-])cc1)NC(=O)[C@H](Cc1ccccc1F)NC(=O)CNC(=O)[C@H](CCC(=O)O)NC(=O)CCC(=O)O) [Suc-EGF(2F)F(4NO2)E-NH2] 0

# lookup: % Inhibition Fbw7 @ 10 µM of Tos-[dD]EG[Phe(3-F)]WD-NH2 (SMILES Cc1ccc(S(=O)(=O)N[C@H](CC(=O)O)C(=O)N[C@@H](CCC(=O)O)C(=O)NCC(=O)N[C@@H](Cc2cccc(F)c2)C(=O)N[C@@H](Cc2c[nH]c3ccccc23)C(=O)N[C@@H](CC(=O)O)C(N)=O)cc1, also called UBP027) [Ts-dEGF(3F)WD-NH2] 3

# lookup: % Inhibition Fbw7 @ 10 µM of Suc-EG[Phe(4-NO2)][1Nal]E-NH2 (SMILES NC(=O)[C@H](CCC(=O)O)NC(=O)[C@H](Cc1cccc2ccccc12)NC(=O)[C@H](Cc1ccc([N+](=O)[O-])cc1)NC(=O)CNC(=O)[C@H](CCC(=O)O)NC(=O)CCC(=O)O) [Suc-EGF(4NO2)1NalE-NH2] 14

# lookup: % Inhibition Fbw7 @ 10 µM of Ac-[dD]EG[Phe(3-F)][1Nal]E-NH2 (SMILES CC(=O)N[C@H](CC(=O)O)C(=O)N[C@@H](CCC(=O)O)C(=O)NCC(=O)N[C@@H](Cc1cccc(F)c1)C(=O)N[C@@H](Cc1cccc2ccccc12)C(=O)N[C@@H](CCC(=O)O)C(N)=O, also called UBP016) [Ac-dEGF(3F)1NalE-NH2] 3

# lookup: % Inhibition Fbw7 @ 10 µM of Suc-EG[Phe(2-F)][Tyr(Me)]E-NH2 (SMILES COc1ccc(C[C@H](NC(=O)[C@H](Cc2ccccc2F)NC(=O)CNC(=O)[C@H](CCC(=O)O)NC(=O)CCC(=O)O)C(=O)N[C@@H](CCC(=O)O)C(N)=O)cc1) [Suc-EGF(2F)Y(Me)E-NH2] 0

# lookup: % Inhibition Fbw7 @ 10 µM of Tos-[dD]EG[Phe(3-Cl)]W[E(Me)]-NH2 (also called UBP033) [Ts-dEGF(3Cl)WE(Me)-NH2] 7

# lookup: % Inhibition Fbw7 @ 10 µM of QGXXE (N-terminal Suc (succinyl) cap; position 3 F(3F); position 4 F(4NO2); C-terminal amide) [Suc-QGF(3F)F(4NO2)E-NH2] 0

Reference for the values: patent US20190106460A1
